Cited source for all entries: patent US10144715B2

# TEST TARGET: LXR α LBD protein (Homo sapiens (Human))
# Sequence (Q13133 209-447): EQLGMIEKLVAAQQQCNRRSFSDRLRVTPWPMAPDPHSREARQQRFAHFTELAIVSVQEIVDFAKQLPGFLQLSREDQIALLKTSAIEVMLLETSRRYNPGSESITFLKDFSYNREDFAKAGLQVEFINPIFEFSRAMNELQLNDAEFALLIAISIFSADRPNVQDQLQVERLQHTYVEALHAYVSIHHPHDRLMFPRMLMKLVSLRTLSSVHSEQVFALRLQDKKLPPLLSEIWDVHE
# PROTOCOL DESCRIPTION: Human LXRα coactivator recruitment FRET assay, agonist mode
# Format: biochemical
# TEST CONTEXT: agonist mode
# EC50 binned as bin A: < 2000 nM; bin B: ≥ 2000 nM and < 3000 nM; bin C: ≥ 3000 nM

Observe how each entry below is paired with its result.
CC(C)[C@@H]1CN(c2cccc(S(C)(=O)=O)c2)CCN1c1ncc(C2CC2)cn1: bin A
CS(=O)(=O)c1cccc(N2CCN(Cc3ccc(C(F)(F)F)nc3)C(c3cccc(Cl)c3)C2)c1 (centres unmarked): bin C
CS(=O)(=O)c1cccc(N2CCN(C[C@H]3CC[C@H](C(F)(F)F)CC3)[C@H](c3ccccc3)C2)c1 (single isomer, unassigned): bin C

# bin label for CS(=O)(=O)c1cc(F)cc(N2CCN(Cc3ccc(C(F)(F)F)nc3)C(c3ccccc3)C2)c1 (centres unmarked)
bin B

Now give it for CS(=O)(=O)c1cccc(N2CCN(Cc3ccc(OC(F)(F)F)cc3)[C@H](c3ccccc3)C2)c1 (single isomer, unassigned) too.
bin C

Now give it for CS(=O)(=O)c1cc(N2CCN(Cc3ccc(C(F)(F)F)c(Cl)c3)C(c3ccccc3)C2)ccc1CO (centres unmarked) too.
bin A

Now give it for CS(=O)(=O)c1cc(N2CCN(C[C@H]3CC[C@H](C(F)(F)F)CC3)[C@@H](c3ccccc3)C2)ccc1C(N)=O (single isomer, unassigned) too.
bin A

Now give it for CS(=O)(=O)c1cccc(N2CCN(C[C@H]3CC[C@@H](C(F)F)CC3)[C@H](c3ccccc3)C2)c1 (single isomer, unassigned) too.
bin B

Now give it for CS(=O)(=O)c1cccc(N2CCN(Cc3ccc(C(F)(F)F)cc3)[C@@H](c3ccc(F)cc3)C2)c1 too.
bin B

Now give it for CC(C)(C)C1CN(c2ccc(F)c(S(C)(=O)=O)c2)CCN1c1nccc(C(F)(F)F)n1 (centres unmarked) too.
bin A

====

# TEST TARGET: Gal4 DNA binding domain fused to the LBD of LXRα in HEK293 cells (Homo sapiens (Human), UniProt Q13133)
# Sequence (Q13133 209-447): as above
# PROTOCOL DESCRIPTION: LXR luciferase transcriptional reporter gene assay, agonist mode, LXRα
# Format: cell-based
# TEST CONTEXT: read-out: Cell LXRα EC50
Binary label based on EC50 with cut-off 2000 nM: below gives criterion met, not below gives criterion not met.

Observe how each entry below is paired with its result.
Cc1ccc(CN2CCN(c3cccc(S(C)(=O)=O)c3)C[C@@H]2c2ccccc2)cc1 (single isomer, unassigned): criterion not met
CC(=O)c1cnc(N2CCN(c3ccc(F)c(S(C)(=O)=O)c3)C[C@H]2c2ccc(F)cc2)nc1C(F)(F)F: criterion not met
CS(=O)(=O)c1cccc(N2CCN(C[C@H]3CC[C@](C)(O)CC3)[C@@H](c3ccccc3)C2)c1 (single isomer, unassigned): criterion not met
CS(=O)(=O)c1cccc(N2CCN(C[C@H]3CC[C@@]4(CC3)CC4(F)F)[C@H](c3ccccc3)C2)c1 (single isomer, unassigned): criterion not met
CCOC(=O)c1cnc(N2CCN(c3ccc(-c4nnc(C)o4)c(S(C)(=O)=O)c3)C[C@H]2C(C)C)nc1C(F)(F)F: criterion not met

Record CS(=O)(=O)c1cccc(N2CCN(C[C@H]3CC[C@H](C(F)(F)F)CC3)[C@@H](c3ccccc3)C2)c1 (single isomer, unassigned) : is its EC50 strictly below 2000 nM?
criterion met

Now give it for COC1CN(C(=O)c2cnc(N3CCN(c4ccc(F)c(S(C)(=O)=O)c4)C[C@H]3C(C)C)nc2C(F)(F)F)C1 too.
criterion not met

Now give it for CC(C)[C@H]1CC[C@H](CN2CCN(c3cccc(S(C)(=O)=O)c3)C[C@H]2c2ccccc2)CC1 (single isomer, unassigned) too.
criterion not met

Now give it for CC(C)[C@H]1CN(c2cccc(S(C)(=O)=O)c2)CCN1C[C@H]1CC[C@@H](C(F)(F)F)OC1 (single isomer, unassigned) too.
criterion met

Now give it for CS(=O)(=O)c1cccc(N2CCN(C[C@H]3C[C@@H]4[C@H](C3)C4(F)F)[C@@H](c3ccccc3)C2)c1 too.
criterion met

Now give it for CS(=O)(=O)c1cccc(N2CCN(C[C@H]3CC[C@@]4(CC3)CC4(F)F)[C@@H](c3ccccc3)C2)c1 (single isomer, unassigned) too.
criterion met

Now give it for CC(C)[C@@H]1CN(c2ccc(Cl)c(S(C)(=O)=O)c2)CCN1c1ncc(CO)c(C(F)(F)F)n1 too.
criterion met

Now give it for CS(=O)(=O)c1cccc(N2CCN(Cc3ccc(OC(F)(F)F)cc3)[C@H](c3ccccc3)C2)c1 (single isomer, unassigned) too.
criterion not met

====

# TEST TARGET: LXR β LBD protein (Homo sapiens (Human), UniProt P55055)
# PROTOCOL DESCRIPTION: biochemical
# Format: binding
# TEST CONTEXT: Biological Test Example 1; read-out: LXRβ Binding Ki
OBSERVABLE: Ki (nM)
All answers are understood in nM, so give the number only.

CC1(C)CCC(O)(CN2CCN(c3cccc(S(C)(=O)=O)c3)C[C@@H]2c2ccccc2)CC1: 121
CC(C)[C@H]1CN(c2cccc(S(C)(=O)=O)c2)CCN1CC1CCC(C(F)(F)F)N(C)C1 (stereo partly drawn): 19

Here's the next entry for you.
For the compound shown here, CS(=O)(=O)c1cccc(N2CCN(CC3(F)CCN(CC(F)(F)F)CC3)[C@@H](c3ccccc3)C2)c1 (single isomer, unassigned) , give the reported Ki.
259

====

# TEST TARGET: LXR β LBD protein (Homo sapiens (Human), UniProt P55055)
# PROTOCOL DESCRIPTION: biochemical
# Type: biochemical
# TEST CONTEXT: read-out: FRET LXRβ EC50
OBSERVABLE: pEC50
Keep in mind that pEC50 stands for -log10 of concentration in molar terms.

Please review the following examples before continuing.
CS(=O)(=O)c1cccc(N2CCN(Cc3ccc(OC(F)(F)F)cc3)[C@H](c3ccccc3)C2)c1 (single isomer, unassigned): 5.90
Cc1ccccc1[C@@H]1CN(c2cccc(S(C)(=O)=O)c2)CCN1Cc1ccc(C(F)(F)F)nc1 (single isomer, unassigned): 5.82
CC(C)(O)c1ccc(CN2CCN(c3cccc(S(C)(=O)=O)c3)C[C@@H]2c2ccccc2)cc1: 5.94
CC(C)c1ccc(CN2CCN(c3cccc(S(C)(=O)=O)c3)CC2c2ccccc2)cn1 (stereo not drawn): 5.98
CS(=O)(=O)c1cccc(N2CCN(Cc3ccc(C(F)(F)F)nc3)[C@H](c3ccccc3Cl)C2)c1 (single isomer, unassigned): 5.65

For the compound shown here, CS(=O)(=O)c1cccc(N2CCN(C[C@@H]3CCN(CC(F)(F)F)C3)[C@@H](c3ccccc3)C2)c1 (single isomer, unassigned) , give the reported pEC50.
6.95

Now give it for CC(C)(O)[C@@H]1CN(c2cccc(S(C)(=O)=O)c2)CCN1c1nccc(C(F)(F)F)n1 too.
7.85

====

# TEST TARGET: Gal4 DNA binding domain fused to the LBD of LXRβ in HEK293 cells (Homo sapiens (Human), UniProt P55055)
# Sequence (P55055 222-460 limits assumed): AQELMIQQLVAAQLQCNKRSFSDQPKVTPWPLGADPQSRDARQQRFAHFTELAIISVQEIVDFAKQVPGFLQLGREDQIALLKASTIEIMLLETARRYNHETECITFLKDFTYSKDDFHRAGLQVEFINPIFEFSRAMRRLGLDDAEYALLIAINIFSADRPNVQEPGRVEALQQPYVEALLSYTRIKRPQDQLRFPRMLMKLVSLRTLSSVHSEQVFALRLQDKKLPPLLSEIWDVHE
# PROTOCOL DESCRIPTION: cell-based
# Assay type: cell-based
OBSERVABLE: IC50 (nM)
All answers are understood in nM, so give the number only.

For the molecule shown here, CC(C)c1ccc(CN2CCN(c3cccc(S(C)(=O)=O)c3)C[C@@H]2c2ccccc2)cc1 [46-8] , give the reported IC50.
1420

Now give it for CC(C)[C@@H]1CN(c2cc(F)c(CO)c(S(C)(=O)=O)c2)CCN1c1ncc(C(N)=O)c(C(F)(F)F)n1 [Cpd No 17-28] too.
182

Now give it for CS(=O)(=O)c1cccc(N2CCN(C[C@@H]3CCN(CC(F)(F)F)C3)[C@@H](c3ccccc3)C2)c1 (single isomer, unassigned) [48-61] too.
118

Now give it for COCCN(C)C(=O)c1cnc(N2CCN(c3ccc(F)c(S(C)(=O)=O)c3)C[C@H]2C(C)C)nc1C(F)(F)F [17-12] too.
295

Now give it for CC[C@@H](O)c1cnc(N2CCN(c3ccc(F)c(S(C)(=O)=O)c3)C[C@H]2C(C)C)nc1C(F)(F)F (single isomer, unassigned) [Cpd No 12-7] too.
104

Now give it for CC(C)[C@@H]1CN(c2ccc(F)c(S(C)(=O)=O)c2)CCN1c1ncc(C(=O)N2CCOCC2)c(C(F)(F)F)n1 [17-8] too.
538

====

# TEST TARGET: Gal4 DNA binding domain fused to the LBD of LXRβ in HEK293 cells (Homo sapiens (Human), UniProt P55055)
# PROTOCOL DESCRIPTION: cell-based
OBSERVABLE: pEC50
Keep in mind that pEC50 stands for -log10 of concentration in molar terms.

Please review the following examples before continuing.
CS(=O)(=O)c1cc(N2CCN(c3ncc(CO)c(C(F)(F)F)n3)[C@H](c3ccc(F)cc3)C2)ccc1F: 6.50
CNC(=O)c1cnc(N2CCN(c3ccc(F)c(S(C)(=O)=O)c3)C[C@H]2C(C)C)nc1C(F)(F)F: 6.35
Cc1nc(N2CCN(c3cccc(S(C)(=O)=O)c3)C[C@H]2C(C)C)ccc1C(F)(F)F: 7.31
CC(C)[C@@H]1CN(c2ccc(F)c(S(C)(=O)=O)c2)CCN1c1cnc(C(F)(F)F)cn1: 7.72
CC(C)[C@@H]1CN(c2ccc(F)c(S(C)(=O)=O)c2)CCN1c1nc(C(F)(F)F)c(C(C)(C)O)o1: 6.05

Here's the next entry for you.
For the molecule shown here, CC(C)[C@@H]1CN(c2ccc(F)c(S(C)(=O)=O)c2)CCN1c1cncc(C(F)(F)F)c1 , give the reported pEC50.
6.85
